Provenance of the data: the supplement of paper PMC10338343

Tested on: MIWI (PIWIL1) piRISC loaded with L1MC piRNA (30 nt)
assay.info: pre-steady-state target cleavage rate (min^-1); higher = faster piRNA-guided slicing of the target
measurement.setup: guide: L1MC piRNA 5'p-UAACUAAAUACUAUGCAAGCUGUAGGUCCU; auxiliary factor: none (no GTSF1)
Over roughly 8,200 sequences, “pre-steady-state target cleavage rate” has its median near 0.024; the highest 2% begin near 1.3. For the sample, the highest values were picked, then their nearest neighbours and some sequences at random.

>  <seq>
UCCUGGAUGAGCUUGCAUAGUAUUUAGUGA

>  <pre-steady-state target cleavage rate>
0.0519

$$$$
>  <seq>
UCCUGCUACUGCUUGGAUAGUAUUUAGUUA

>  <pre-steady-state target cleavage rate>
0.0353

$$$$
>  <seq>
UCCUGGUUCAGCUUGCAUAGUUUUUAGUUA

>  <pre-steady-state target cleavage rate>
0.0386

$$$$
>  <seq>
UCCACCUACAGCUUGCAUAGUAUUCUAGUUA

>  <pre-steady-state target cleavage rate>
0.0214

$$$$
>  <seq>
UCGACCAAGAGCUUGCAUAGUAUUUAGUUA

>  <pre-steady-state target cleavage rate>
0.0547

$$$$
>  <seq>
UCCUGGUUGUGCUUGCAUAGUAUUUAGUUA

>  <pre-steady-state target cleavage rate>
0.0455

$$$$
>  <seq>
UCCUGGAUGUCCUUGCAGAGUAUUUAGUUA

>  <pre-steady-state target cleavage rate>
0.00314

$$$$

====

Listed here: items and their measured pre-steady-state target cleavage rate.
Test system: MIWI (PIWIL1) piRISC loaded with L1MC piRNA (30 nt)
assay.info: pre-steady-state target cleavage rate (min^-1); MIWI and MILI are mouse PIWI proteins and EfPiwi is from a freshwater sponge; tags in brackets are library labels; higher = faster piRNA-guided slicing of the target
measurement.setup: guide: L1MC piRNA 5'p-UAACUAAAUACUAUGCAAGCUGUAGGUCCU; auxiliary factor: none (no GTSF1)
In all, about 8,200 sequences were measured (“pre-steady-state target cleavage rate”: median about 0.024, highest 2% from about 1.3 on). This excerpt belongs to a sample that is enriched for the highest values.
assay.metric: pre-steady-state target cleavage rate

>  <seq>
UGGACCUACAGCUUGGAUAGUAUUUAGUUA

>  <measurement.target>
MIWI (PIWIL1) piRISC loaded with L1MC piRNA (30 nt)

>  <meas.value>
0.0735

$$$$
>  <seq>
UCCAACUACAGCUUGCAUAGUAUUUAGUUA

>  <measurement.target>
MIWI (PIWIL1) piRISC loaded with L1MC piRNA (30 nt)

>  <meas.value>
0.0478

$$$$
>  <seq>
ACCUCCUACAGCUUGCAUAGUAUUUAGAAA

>  <measurement.target>
MIWI (PIWIL1) piRISC loaded with L1MC piRNA (30 nt)

>  <meas.value>
0.00602

$$$$
>  <seq>
UCCUCCAACAGCUUGCAUAGUAUUUAGAUA

>  <measurement.target>
MIWI (PIWIL1) piRISC loaded with L1MC piRNA (30 nt);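 also: 1 nM active piRISC with 0.1 nM target library at 33 °C single turnover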

>  <meas.value>
0.0201

$$$$
>  <seq>
AGGUCCAACAGCUUGCAUAGUAUUUAGUUA

>  <measurement.target>
MIWI (PIWIL1) piRISC loaded with L1MC piRNA (30 nt);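 also: 1 nM active piRISC with 0.1 nM target library at 33 °C single turnover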

>  <meas.value>
0.0907

$$$$
>  <seq>
UCCACCUACAGCUUGCAUAGUAUUUGGUUA

>  <measurement.target>
MIWI (PIWIL1) piRISC loaded with L1MC piRNA (30 nt);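 also: 1 nM active piRISC with 0.1 nM target library at 33 °C single turnover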

>  <meas.value>
0.0358

$$$$
>  <seq>
UCCUCCUUCAGCUUGCAUAGUAUUUAGUUA

>  <measurement.target>
MIWI (PIWIL1) piRISC loaded with L1MC piRNA (30 nt);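 also: 1 nM active piRISC with 0.1 nM target library at 33 °C single turnover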

>  <meas.value>
0.0537

$$$$
>  <seq>
UCGUCCUUCAGCUUGCAUAGUAUUUAGUUA

>  <measurement.target>
MIWI (PIWIL1) piRISC loaded with L1MC piRNA (30 nt);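 also: 1 nM active piRISC with 0.1 nM target library at 33 °C single turnover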

>  <meas.value>
0.0596

$$$$
>  <seq>
UCCUGGAACAGCUUGCAUAGUACUUUAGUUA

>  <measurement.target>
MIWI (PIWIL1) piRISC loaded with L1MC piRNA (30 nt);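 also: 1 nM active piRISC with 0.1 nM target library at 33 °C single turnover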

>  <meas.value>
0.00827

$$$$
>  <seq>
UCCUCCUUCAGCAUGCAUAGUAUUUAGUUA

>  <measurement.target>
MIWI (PIWIL1) piRISC loaded with L1MC piRNA (30 nt);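 also: 1 nM active piRISC with 0.1 nM target library at 33 °C single turnover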

>  <meas.value>
0.0155

$$$$
>  <seq>
UCCUCCUCACAGCUUGCAUAGUAUUUAGUUA

>  <measurement.target>
MIWI (PIWIL1) piRISC loaded with L1MC piRNA (30 nt);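 also: 1 nM active piRISC with 0.1 nM target library at 33 °C single turnover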

>  <meas.value>
0.0662

$$$$
>  <seq>
UCCACCAACAGCUUGCAUAGUAUUUAGUAA

>  <measurement.target>
MIWI (PIWIL1) piRISC loaded with L1MC piRNA (30 nt);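 also: 1 nM active piRISC with 0.1 nM target library at 33 °C single turnover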

>  <meas.value>
0.0342

$$$$
>  <seq>
UCCUGGCACAGCUUGCAUAGUAUUUAGUUA

>  <measurement.target>
MIWI (PIWIL1) piRISC loaded with L1MC piRNA (30 nt);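 also: 1 nM active piRISC with 0.1 nM target library at 33 °C single turnover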

>  <meas.value>
0.0452

$$$$
>  <seq>
UCCACCAACAGCUUGCAUAGUAUUUAGUUA

>  <measurement.target>
MIWI (PIWIL1) piRISC loaded with L1MC piRNA (30 nt);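 also: 1 nM active piRISC with 0.1 nM target library at 33 °C single turnover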

>  <meas.value>
0.0618

$$$$
>  <seq>
UCCACCUACAGCUUGGAUAGUAUUUAGUUA

>  <measurement.target>
MIWI (PIWIL1) piRISC loaded with L1MC piRNA (30 nt);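 also: 1 nM active piRISC with 0.1 nM target library at 33 °C single turnover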

>  <meas.value>
0.0469

$$$$
>  <seq>
UCCUGGAUGAGCUUGCAAAGUAUUUUGUUA

>  <measurement.target>
MIWI (PIWIL1) piRISC loaded with L1MC piRNA (30 nt);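 also: 1 nM active piRISC with 0.1 nM target library at 33 °C single turnover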

>  <meas.value>
0.0136

$$$$
>  <seq>
UCCACCUACAGCUUGGAUAGUAUUUAGUAA

>  <measurement.target>
MIWI (PIWIL1) piRISC loaded with L1MC piRNA (30 nt);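 also: 1 nM active piRISC with 0.1 nM target library at 33 °C single turnover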

>  <meas.value>
0.0244

$$$$
>  <seq>
UCCUCCUACAGCUUGCAUGGUAUUUAGUUA

>  <measurement.target>
MIWI (PIWIL1) piRISC loaded with L1MC piRNA (30 nt);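 also: 1 nM active piRISC with 0.1 nM target library at 33 °C single turnover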

>  <meas.value>
0.0582

$$$$
>  <seq>
UCCACCUACACCUUGCAUAGUAUUUACAAA

>  <measurement.target>
MIWI (PIWIL1) piRISC loaded with L1MC piRNA (30 nt);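 also: 1 nM active piRISC with 0.1 nM target library at 33 °C single turnover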

>  <meas.value>
0.00355

$$$$
>  <seq>
UCCUCCUACAGCUUGGAUAGUAUUUAGUAA

>  <measurement.target>
MIWI (PIWIL1) piRISC loaded with L1MC piRNA (30 nt);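 also: 1 nM active piRISC with 0.1 nM target library at 33 °C single turnover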

>  <meas.value>
0.0186

$$$$
>  <seq>
AGGUCCUUCAGCUUGCAUAGUAUUUAGUUA

>  <measurement.target>
MIWI (PIWIL1) piRISC loaded with L1MC piRNA (30 nt);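 also: 1 nM active piRISC with 0.1 nM target library at 33 °C single turnover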

>  <meas.value>
0.0947

$$$$
>  <seq>
UGGACCUACACGCUUGCAUAGUAUUUAGUUA

>  <measurement.target>
MIWI (PIWIL1) piRISC loaded with L1MC piRNA (30 nt);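 also: 1 nM active piRISC with 0.1 nM target library at 33 °C single turnover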

>  <meas.value>
0.0641

$$$$
>  <seq>
UGGACCUACAGCUUGCAUGGUAUUUAGUUA

>  <measurement.target>
MIWI (PIWIL1) piRISC loaded with L1MC piRNA (30 nt);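 also: 1 nM active piRISC with 0.1 nM target library at 33 °C single turnover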

>  <meas.value>
0.0478

$$$$
>  <seq>
UCCUGGUUCAGCUUGCAUAGUAUUUAGUUA

>  <measurement.target>
MIWI (PIWIL1) piRISC loaded with L1MC piRNA (30 nt);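 also: 1 nM active piRISC with 0.1 nM target library at 33 °C single turnover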

>  <meas.value>
0.0721

$$$$
>  <seq>
UCCACCUACGCUUGCAUAGUAUUUAGUUA

>  <measurement.target>
MIWI (PIWIL1) piRISC loaded with L1MC piRNA (30 nt);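 also: 1 nM active piRISC with 0.1 nM target library at 33 °C single turnover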

>  <meas.value>
0.0451

$$$$
>  <seq>
UCGUCCUACAGCUUGGAUAGUAUUUAGUUA

>  <measurement.target>
MIWI (PIWIL1) piRISC loaded with L1MC piRNA (30 nt);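 also: 1 nM active piRISC with 0.1 nM target library at 33 °C single turnover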

>  <meas.value>
0.0586

$$$$
>  <seq>
AGGACCUAACAGCUUGCAUAGUAUUUAGUUA

>  <measurement.target>
MIWI (PIWIL1) piRISC loaded with L1MC piRNA (30 nt);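 also: 1 nM active piRISC with 0.1 nM target library at 33 °C single turnover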

>  <meas.value>
0.0788

$$$$
>  <seq>
UCCUGCUACAGCUUGCAUGGUAUUUAGUUA

>  <measurement.target>
MIWI (PIWIL1) piRISC loaded with L1MC piRNA (30 nt);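 also: 1 nM active piRISC with 0.1 nM target library at 33 °C single turnover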

>  <meas.value>
0.0413

$$$$
>  <seq>
UCGACCUACGCUUGCAUAGUAUUUAGUUA

>  <measurement.target>
MIWI (PIWIL1) piRISC loaded with L1MC piRNA (30 nt);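 also: 1 nM active piRISC with 0.1 nM target library at 33 °C single turnover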

>  <meas.value>
0.0463

$$$$
>  <seq>
UCCACCCUACAGCUUGCAUAGUAUUUAGUUA

>  <measurement.target>
MIWI (PIWIL1) piRISC loaded with L1MC piRNA (30 nt);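 also: 1 nM active piRISC with 0.1 nM target library at 33 °C single turnover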

>  <meas.value>
0.0575

$$$$
>  <seq>
AGCACCUACAGCUUGGAUAGUAUUUAGUUA

>  <measurement.target>
MIWI (PIWIL1) piRISC loaded with L1MC piRNA (30 nt);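 also: 1 nM active piRISC with 0.1 nM target library at 33 °C single turnover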

>  <meas.value>
0.0433

$$$$
>  <seq>
UGGACCUACAGCUUGCAUAGUAUUUAUUA

>  <measurement.target>
MIWI (PIWIL1) piRISC loaded with L1MC piRNA (30 nt);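 also: 1 nM active piRISC with 0.1 nM target library at 33 °C single turnover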

>  <meas.value>
0.00594

$$$$
>  <seq>
UGGUCCUUCAGCUUGCAUAGUAUUUAGUUA

>  <measurement.target>
MIWI (PIWIL1) piRISC loaded with L1MC piRNA (30 nt);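 also: 1 nM active piRISC with 0.1 nM target library at 33 °C single turnover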

>  <meas.value>
0.0643

$$$$
>  <seq>
UCCUCCCACAGCUUGCAUAGUAUUUAGUUA

>  <measurement.target>
MIWI (PIWIL1) piRISC loaded with L1MC piRNA (30 nt);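 also: 1 nM active piRISC with 0.1 nM target library at 33 °C single turnover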

>  <meas.value>
0.0641

$$$$
>  <seq>
AGGACCUACAGCUUGGAUAGUAUUUAGUUA

>  <measurement.target>
MIWI (PIWIL1) piRISC loaded with L1MC piRNA (30 nt);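 also: 1 nM active piRISC with 0.1 nM target library at 33 °C single turnover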

>  <meas.value>
0.0813

$$$$
>  <seq>
UCCUGCUCACAGCUUGCAUAGUAUUUAGUUA

>  <measurement.target>
MIWI (PIWIL1) piRISC loaded with L1MC piRNA (30 nt);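 also: 1 nM active piRISC with 0.1 nM target library at 33 °C single turnover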

>  <meas.value>
0.0748

$$$$
>  <seq>
UCCUGCUACAGCUUGCAUAGUCUUUAGUUA

>  <measurement.target>
MIWI (PIWIL1) piRISC loaded with L1MC piRNA (30 nt);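 also: 1 nM active piRISC with 0.1 nM target library at 33 °C single turnover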

>  <meas.value>
0.0195

$$$$
>  <seq>
UGCGACCUACAGCUUGCAUAGUAUUUAGUUA

>  <measurement.target>
MIWI (PIWIL1) piRISC loaded with L1MC piRNA (30 nt);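 also: 1 nM active piRISC with 0.1 nM target library at 33 °C single turnover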

>  <meas.value>
0.0975

$$$$
>  <seq>
AGGACCUACAGCUUGGAUAGUAUUUAGAUA

>  <measurement.target>
MIWI (PIWIL1) piRISC loaded with L1MC piRNA (30 nt);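 also: 1 nM active piRISC with 0.1 nM target library at 33 °C single turnover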

>  <meas.value>
0.0218

$$$$
>  <seq>
UCGACCUACAGCUUGCAUGGUAUUUAGUUA

>  <measurement.target>
MIWI (PIWIL1) piRISC loaded with L1MC piRNA (30 nt);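 also: 1 nM active piRISC with 0.1 nM target library at 33 °C single turnover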

>  <meas.value>
0.0512

$$$$
>  <seq>
UGGACCUACAGGUUGGAUAGUAUUUAGUUA

>  <measurement.target>
MIWI (PIWIL1) piRISC loaded with L1MC piRNA (30 nt);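 also: 1 nM active piRISC with 0.1 nM target library at 33 °C single turnover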

>  <meas.value>
0.0484

$$$$
>  <seq>
AGGACCUACAGCUUGCAUGGUAUUUAGUUA

>  <measurement.target>
MIWI (PIWIL1) piRISC loaded with L1MC piRNA (30 nt);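 also: 1 nM active piRISC with 0.1 nM target library at 33 °C single turnover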

>  <meas.value>
0.0615

$$$$
>  <seq>
UGGUCCAACAGCUUGCAUAGUAUUUAGUUA

>  <measurement.target>
MIWI (PIWIL1) piRISC loaded with L1MC piRNA (30 nt);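 also: 1 nM active piRISC with 0.1 nM target library at 33 °C single turnover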

>  <meas.value>
0.0715

$$$$
>  <seq>
UGGACCAUGAGCUUGCAUAGUAUUUAGUAA

>  <measurement.target>
MIWI (PIWIL1) piRISC loaded with L1MC piRNA (30 nt);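 also: 1 nM active piRISC with 0.1 nM target library at 33 °C single turnover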

>  <meas.value>
0.0285

$$$$
>  <seq>
AGGACCUACGCUUGCAUAGUAUUUAGUUA

>  <measurement.target>
MIWI (PIWIL1) piRISC loaded with L1MC piRNA (30 nt);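 also: 1 nM active piRISC with 0.1 nM target library at 33 °C single turnover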

>  <meas.value>
0.0719

$$$$
>  <seq>
UGGAGCUACAGCUUGGAUAGUAUUUAGUUA

>  <measurement.target>
MIWI (PIWIL1) piRISC loaded with L1MC piRNA (30 nt);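 also: 1 nM active piRISC with 0.1 nM target library at 33 °C single turnover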

>  <meas.value>
0.0533

$$$$
>  <seq>
UGGACCUACAGCUUGGAUAGUAUUUAGUAA

>  <measurement.target>
MIWI (PIWIL1) piRISC loaded with L1MC piRNA (30 nt);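 also: 1 nM active piRISC with 0.1 nM target library at 33 °C single turnover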

>  <meas.value>
0.0355

$$$$
>  <seq>
UGGACCUACAGCUUGGAUAGUAUUUAGAAA

>  <measurement.target>
MIWI (PIWIL1) piRISC loaded with L1MC piRNA (30 nt);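 also: 1 nM active piRISC with 0.1 nM target library at 33 °C single turnover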

>  <meas.value>
0.0107

$$$$
>  <seq>
UGGACCUACAGCUUGCAUAGUAUUUUAGUUA

>  <measurement.target>
MIWI (PIWIL1) piRISC loaded with L1MC piRNA (30 nt);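 also: 1 nM active piRISC with 0.1 nM target library at 33 °C single turnover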

>  <meas.value>
0.0467

$$$$
>  <seq>
UCCUGCUACGCUUGCAUAGUAUUUAGUUA

>  <measurement.target>
MIWI (PIWIL1) piRISC loaded with L1MC piRNA (30 nt);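 also: 1 nM active piRISC with 0.1 nM target library at 33 °C single turnover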

>  <meas.value>
0.0532

$$$$
>  <seq>
UCCUGCUUGUGCUUGCAUAGUAUUUACAAA

>  <measurement.target>
MIWI (PIWIL1) piRISC loaded with L1MC piRNA (30 nt);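 also: 1 nM active piRISC with 0.1 nM target library at 33 °C single turnover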

>  <meas.value>
0.00366

$$$$
>  <seq>
UCCUCCUACAGCUUGGAUAGUAUUUAGAUA

>  <measurement.target>
MIWI (PIWIL1) piRISC loaded with L1MC piRNA (30 nt);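 also: 1 nM active piRISC with 0.1 nM target library at 33 °C single turnover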

>  <meas.value>
0.00865

$$$$
>  <seq>
UGGACCUAACAGCUUGCAUAGUAUUUAGUUA

>  <measurement.target>
MIWI (PIWIL1) piRISC loaded with L1MC piRNA (30 nt);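 also: 1 nM active piRISC with 0.1 nM target library at 33 °C single turnover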

>  <meas.value>
0.0609

$$$$
>  <seq>
UCCUCCUCCAGCUUGCAUAGUAUUUAGUUA

>  <measurement.target>
MIWI (PIWIL1) piRISC loaded with L1MC piRNA (30 nt);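 also: 1 nM active piRISC with 0.1 nM target library at 33 °C single turnover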

>  <meas.value>
0.0546

$$$$
>  <seq>
AGGACCUACAGCUUGCAUGUAUUUAGUUA

>  <measurement.target>
MIWI (PIWIL1) piRISC loaded with L1MC piRNA (30 nt);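 also: 1 nM active piRISC with 0.1 nM target library at 33 °C single turnover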

>  <meas.value>
0.00718

$$$$
